Where these numbers come from: patent US8158647B2

The following compounds are listed with their measured GI50 values.
# measurement.target: ABL P210WT BAF3 cells (Homo sapiens, UniProt P00519)
# Construct: ABL P210WT BAF3; fused on or other part: P11274 (Breakpoint cluster region protein)
# Sequence (P00519 whole entry, change not shown, the tested form may be a part): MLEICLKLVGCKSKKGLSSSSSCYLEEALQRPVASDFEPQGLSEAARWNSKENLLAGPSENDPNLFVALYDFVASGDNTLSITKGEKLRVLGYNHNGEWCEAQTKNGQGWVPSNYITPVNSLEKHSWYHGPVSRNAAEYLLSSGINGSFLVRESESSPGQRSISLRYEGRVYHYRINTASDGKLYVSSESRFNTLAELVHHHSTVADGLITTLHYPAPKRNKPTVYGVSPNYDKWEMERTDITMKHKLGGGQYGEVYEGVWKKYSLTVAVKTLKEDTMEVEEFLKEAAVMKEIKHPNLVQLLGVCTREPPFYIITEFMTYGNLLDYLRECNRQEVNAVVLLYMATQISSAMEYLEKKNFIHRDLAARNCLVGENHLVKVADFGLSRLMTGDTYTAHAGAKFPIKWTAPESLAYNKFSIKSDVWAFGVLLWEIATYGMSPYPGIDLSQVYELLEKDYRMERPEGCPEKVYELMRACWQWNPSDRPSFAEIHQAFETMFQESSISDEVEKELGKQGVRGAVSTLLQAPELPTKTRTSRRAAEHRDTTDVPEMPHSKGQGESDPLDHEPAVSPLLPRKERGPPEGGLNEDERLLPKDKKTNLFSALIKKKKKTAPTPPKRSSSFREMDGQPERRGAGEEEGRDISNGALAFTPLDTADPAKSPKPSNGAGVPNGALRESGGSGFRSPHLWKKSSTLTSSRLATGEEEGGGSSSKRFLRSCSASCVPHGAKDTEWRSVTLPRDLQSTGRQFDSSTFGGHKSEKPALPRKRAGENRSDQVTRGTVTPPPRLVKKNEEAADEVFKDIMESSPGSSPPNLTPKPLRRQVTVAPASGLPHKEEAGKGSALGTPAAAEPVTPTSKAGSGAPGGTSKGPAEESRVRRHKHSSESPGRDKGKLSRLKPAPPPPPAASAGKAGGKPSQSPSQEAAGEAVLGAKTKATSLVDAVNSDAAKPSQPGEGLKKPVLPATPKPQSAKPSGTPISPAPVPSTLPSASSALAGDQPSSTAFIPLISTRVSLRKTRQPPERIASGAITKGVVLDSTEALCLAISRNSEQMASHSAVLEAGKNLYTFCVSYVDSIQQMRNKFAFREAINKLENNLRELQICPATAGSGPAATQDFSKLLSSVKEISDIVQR
# protocol: 96-well XTT cell survival assay, BaF3 ABL P210WT
# Format: cell-based
# condition.label: ABL P210 WT, 72 hours, read-out: CELL BIO ABL P210WT BAF3 XTT (IC50)

Known GI50 results, listed for orientation:
COc1ccc(F)cc1-c1c[nH]c2ncc(-c3cnc(N)c(C(=O)N(C)C)c3)c(Cl)c12; < 10 nM
COc1ccc(F)cc1-c1c[nH]c2ncc(-c3cncc(C(=O)N(C)C)n3)c(Cl)c12; 10 to 100 nM
COc1ccccc1-c1c[nH]c2ncc(-c3cnc(N)c(C(=O)N(C)C)c3)c(Cl)c12; < 10 nM

Data request: What does the data say about its GI50? Entry: `COc1ccccc1-c1c[nH]c2ncc(-c3cncc(C(=O)C(=O)N(C)C)c3)c(OC)c12`
Data returned: 100 to 1000 nM

Data request: Request: `COc1ccc(F)cc1-c1c[nH]c2ncc(-c3cncc(C(=O)N(C)C)c3)c(Cl)c12`
Data returned: < 10 nM

Data request: What about this compound? `CN(C)C(=O)C(=O)c1cncc(-c2cnc3[nH]cc(-c4cccc(F)c4F)c3c2Cl)c1`
Data returned: > 1000 nM

Data request: Now try `COc1cc(Cl)c(F)cc1-c1c[nH]c2ncc(-c3cnc(N)c(C(=O)N(C)C)c3)cc12` .
Data returned: < 10 nM

Data request: Try this compound next: `CN(C)C(=O)c1nc(-c2cnc3[nH]cc(-c4ccccc4)c3c2Cl)cnc1N`
Data returned: 100 to 1000 nM

Data request: Same for `COc1ccccc1-c1c[nH]c2ncc(Br)c(N)c12`
Data returned: > 1000 nM

Data request: Request: `CN(C)C(=O)c1cc(-c2cnc3[nH]cc(-c4cc(F)ccc4F)c3c2Cl)cnc1N`
Data returned: 10 to 100 nM
